The measured values listed here are drawn from ChEMBL document CHEMBL1128753.

- System: T-cell
- procedure_details: Tested for inhibition of T cell proliferation in the co-mitogen stimulated proliferation assay
- Type: functional, cell-based
- condition_context: Homo sapiens
The following compounds are listed with their measured log10(IC50) values.
test_readout: log10(IC50) (log10 of the value in nM)

{"smiles_notation": "CO[C@H]1C[C@@H]2CC[C@@H](C)[C@@](O)(O2)C(=O)C(=O)N2CCCC[C@H]2C(=O)O[C@H]([C@H](C)C[C@@H]2CC[C@@H](O)[C@H](OC)C2)CC(=O)[C@H](C)/C=C(\\C)[C@@H](OC(=O)CCCCCNc2ccc(N=[N+]=[N-])cc2[N+](=O)[O-])[C@@H](OC)C(=O)[C@H](C)C[C@H](C)/C=C/C=C/C=C/1C", "measured_target": "T-cell", "result_number": 0.89}
{"smiles_notation": "CO[C@H]1C[C@@H]2CC[C@@H](C)[C@@](O)(O2)C(=O)C(=O)N2CCCC[C@H]2C(=O)O[C@H]([C@H](C)C[C@@H]2CC[C@@H](OC(=O)Cc3ccc(N=[N+]=[N-])cc3)[C@H](OC)C2)CC(=O)[C@H](C)/C=C(\\C)[C@@H](O)[C@@H](OC)C(=O)[C@H](C)C[C@H](C)/C=C/C=C/C=C/1C", "measured_target": "T-cell", "result_number": 0.00}
{"smiles_notation": "CO[C@H]1C[C@@H]2CC[C@@H](C)[C@@](O)(O2)C(=O)C(=O)N2CCCC[C@H]2C(=O)O[C@H]([C@H](C)C[C@@H]2CC[C@@H](OC(=O)CCCCCCCNc3ccc(N=[N+]=[N-])cc3[N+](=O)[O-])[C@H](OC)C2)CC(=O)[C@H](C)/C=C(\\C)[C@@H](O)[C@@H](OC)C(=O)[C@H](C)C[C@H](C)/C=C/C=C/C=C/1C", "measured_target": "T-cell", "result_number": 1.01}
{"smiles_notation": "CO[C@H]1C[C@@H]2CC[C@@H](C)[C@@](O)(O2)C(=O)C(=O)N2CCCC[C@H]2C(=O)O[C@H]([C@H](C)C[C@@H]2CC[C@@H](OC(=O)Cc3ccc(N=[N+]=[N-])c(I)c3)[C@H](OC)C2)CC(=O)[C@H](C)/C=C(\\C)[C@@H](O)[C@@H](OC)C(=O)[C@H](C)C[C@H](C)/C=C/C=C/C=C/1C", "measured_target": "T-cell", "result_number": 0.48}
{"smiles_notation": "CO[C@H]1C[C@@H]2CC[C@@H](C)[C@@](O)(O2)C(=O)C(=O)N2CCCC[C@H]2C(=O)O[C@H]([C@H](C)C[C@@H]2CC[C@@H](O)[C@H](OC)C2)CC(=O)[C@H](C)/C=C(\\C)[C@@H](O)[C@@H](OC)C(=O)[C@H](C)C[C@H](C)/C=C/C=C/C=C/1C", "measured_target": "T-cell", "result_number": 0.99}
